- assayed_target: human epidermal growth factor receptor 2 (HER2), membrane-bound on cells (human, UniProt P04626 23-1255)
- assay_remarks: FACS binding; AU565 cells
measurement_label: EC50 (µg/mL)
// note: answer is a bare numeric in µg/mL

Request: Return value of EC50 for input HuMab 159 (antibody, V domains shown) VH: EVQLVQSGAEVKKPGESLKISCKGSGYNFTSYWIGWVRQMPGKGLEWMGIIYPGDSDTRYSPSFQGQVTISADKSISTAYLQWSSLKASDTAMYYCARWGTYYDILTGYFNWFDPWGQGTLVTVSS VL: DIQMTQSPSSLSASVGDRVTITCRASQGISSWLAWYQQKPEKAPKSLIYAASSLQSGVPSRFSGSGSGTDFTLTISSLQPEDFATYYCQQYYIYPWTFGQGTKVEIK , no commentary.
Response: 1.3
